- System: Rhizoctonia solani
- Test protocol: Fungicidal activity against Rhizoctonia solani AG-1 IA assessed as mycelial radial growth at 1 mg/l (reference value: 40 mm)
- Type: functional
Test readout: Activity (mm)
Answer with a number only, understood to be in mm.

Example entries and their recorded answers appear below.
{"Molecule": "CC(C)(C)C(O)(CCc1ccc(Cl)cc1)Cn1cncn1 (stereo not given)", "Units of measure": "mm", "Activity": 7.6}
{"Molecule": "COC(=O)Nc1nc2ccccc2[nH]1", "Units of measure": "mm", "Activity": 1.5}
{"Molecule": "COC(=O)NC(=S)Nc1ccccc1NC(=S)NC(=O)OC [THIOPHANATE METHYL]", "Units of measure": "mm", "Activity": 36.7}

Reported Activity for `CO/C=C(/C(=O)OC)c1ccccc1Oc1cc(Oc2ccccc2C#N)ncn1` : what is it?
16

Reported Activity for CC1COC(Cn2cncn2)(c2ccc(Oc3ccc(Cl)cc3)cc2Cl)O1 (stereo not given) : what is it?
5

Reported Activity for `O=[N+]([O-])c1cc(C(F)(F)F)c(Cl)c([N+](=O)[O-])c1Nc1ncc(C(F)(F)F)cc1Cl` : what is it?
5.1

Reported Activity for `CCCCNC(=O)n1c(NC(=O)OC)nc2ccccc21` : what is it?
9.6

Reported Activity for `CC(C)NC(=O)N1CC(=O)N(c2cc(Cl)cc(Cl)c2)C1=O` : what is it?
5.5

Reported Activity for `CO/N=C(/C(=O)OC)c1ccccc1COc1ccccc1C` : what is it?
26.9

Reported Activity for CC12CC1(C)C(=O)N(c1cc(Cl)cc(Cl)c1)C2=O (stereo not given) : what is it?
17.6

Reported Activity for `c1ccc2[nH]c(-c3cscn3)nc2c1` : what is it?
7.3

====

- System: Rhizoctonia solani
- Test protocol: Fungicidal activity against Rhizoctonia solani AG-1 IA assessed as mycelial radial growth at 1 mg/l (reference value: 40 mm)
- Format: functional
Test readout: Activity
Include the unit right after the number.

Example entries and their recorded answers appear below.
{"Molecule": "N#Cc1c[nH]cc1-c1cccc2c1OC(F)(F)O2", "Test readout": "Activity", "Data value": "0 mm"}
{"Molecule": "Clc1ccc(C2(Cn3cncn3)CC(Br)CO2)c(Cl)c1 (centres undefined)", "Test readout": "Activity", "Data value": "8.2 mm"}
{"Molecule": "COC(=O)N(OC)c1ccccc1COc1ccn(-c2ccc(Cl)cc2)n1", "Test readout": "Activity", "Data value": "8.1 mm"}

Note: attention shifts to another entry.
Reported Activity for `N#Cc1c(Cl)c(Cl)c(Cl)c(C#N)c1Cl` : what is it?
19.3 mm
